Target: T1, human TL1A extracellular domain with N-terminal HIS and FLAG tag (human, UniProt O95150 72-251)
T1 construct: whole entry named. ~70 kDa fraction purified by gel filtration
T1 sequence: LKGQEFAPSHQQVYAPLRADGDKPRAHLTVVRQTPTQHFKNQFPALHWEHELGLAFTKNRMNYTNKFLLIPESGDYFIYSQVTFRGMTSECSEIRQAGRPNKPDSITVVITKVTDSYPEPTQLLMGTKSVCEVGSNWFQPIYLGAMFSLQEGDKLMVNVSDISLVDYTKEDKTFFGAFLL
Assay: SPR run 2; supernatant on Protein A; TL1A 10 ug/mL; timepoint 44
Provide the recorded TL1A Binding Level (Early) for the entries that follow.
Unit RU implied. Number only.

Provide only the value of recorded TL1A Binding Level (Early) for 320-231 (antibody, human IgG1, name in Kabat numbering, V domains shown, human IgG1, lambda) VH: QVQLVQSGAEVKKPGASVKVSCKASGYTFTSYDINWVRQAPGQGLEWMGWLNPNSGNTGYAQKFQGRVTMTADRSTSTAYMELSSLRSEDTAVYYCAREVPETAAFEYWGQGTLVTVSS VL: QSVLTQPPSVSGAPGQRVTISCTSSSWDIGAGLGVHWYQQLPGTAPKLLIEGYYNRPSGVPDRFSGSKSGTSASLTITGLLPEDEGDYYCQSYDGTLSALFGGGTKLTVLG 271

Give a short answer stating reported TL1A Binding Level (Early) for 320-226 (antibody, human IgG1, name in Kabat numbering, V domains shown, human IgG1, lambda) VH: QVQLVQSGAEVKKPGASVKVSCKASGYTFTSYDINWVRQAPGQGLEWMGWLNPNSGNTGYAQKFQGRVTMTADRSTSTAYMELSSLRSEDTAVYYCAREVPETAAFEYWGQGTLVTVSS VL: QSVLTQPPSVSGAPGQRVTISCTSSSQDIGAGLGVHWYQQLPGTAPKLLIEGYYNRPSGVPDRFSGSKSGTSASLTITGLLPEDEGDYYCQSYDGTLSALFGGGTKLTVLG . 250

Assign TL1A Binding Level (Early) to the following record: 320-214 (antibody, human IgG1, name in Kabat numbering, V domains shown, human IgG1, lambda) VH: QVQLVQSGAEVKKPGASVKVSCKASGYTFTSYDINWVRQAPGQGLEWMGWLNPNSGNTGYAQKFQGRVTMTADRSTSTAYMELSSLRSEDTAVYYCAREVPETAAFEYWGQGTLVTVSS VL: QSVLTQPPSVSGAPGQRVTISCTSLSSDIGAGLGVHWYQQLPGTAPKLLIEGYYNRPSGVPDRFSGSKSGTSASLTITGLLPEDEGDYYCQSYDGTLSALFGGGTKLTVLG 221

Indicate the recorded TL1A Binding Level (Early) value for this binder: 320-221 (antibody, human IgG1, name in Kabat numbering, V domains shown, human IgG1, lambda) VH: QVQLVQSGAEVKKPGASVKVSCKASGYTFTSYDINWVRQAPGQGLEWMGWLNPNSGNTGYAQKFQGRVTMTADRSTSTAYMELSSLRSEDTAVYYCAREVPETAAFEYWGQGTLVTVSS VL: QSVLTQPPSVSGAPGQRVTISCTSSKSDIGAGLGVHWYQQLPGTAPKLLIEGYYNRPSGVPDRFSGSKSGTSASLTITGLLPEDEGDYYCQSYDGTLSALFGGGTKLTVLG 225

Name the recorded TL1A Binding Level (Early) of the binder listed here: 320-205 (antibody, human IgG1, name in Kabat numbering, V domains shown, human IgG1, lambda) VH: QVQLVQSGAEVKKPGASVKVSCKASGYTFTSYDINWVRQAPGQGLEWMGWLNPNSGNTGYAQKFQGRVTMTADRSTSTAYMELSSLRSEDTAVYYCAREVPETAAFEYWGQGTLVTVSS VL: QSVLTQPPSVSGAPGQRVTISCTKSSSDIGAGLGVHWYQQLPGTAPKLLIEGYYNRPSGVPDRFSGSKSGTSASLTITGLLPEDEGDYYCQSYDGTLSALFGGGTKLTVLG 290

# return recorded TL1A Binding Level (Early) for entry 320-228 (antibody, human IgG1, name in Kabat numbering, V domains shown, human IgG1, lambda) VH: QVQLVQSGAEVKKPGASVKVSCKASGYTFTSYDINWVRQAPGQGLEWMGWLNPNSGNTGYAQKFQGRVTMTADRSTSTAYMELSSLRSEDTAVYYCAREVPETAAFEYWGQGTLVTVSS VL: QSVLTQPPSVSGAPGQRVTISCTSSSHDIGAGLGVHWYQQLPGTAPKLLIEGYYNRPSGVPDRFSGSKSGTSASLTITGLLPEDEGDYYCQSYDGTLSALFGGGTKLTVLG 259

Supply measured TL1A Binding Level (Early) of 320-213 (antibody, human IgG1, name in Kabat numbering, V domains shown, human IgG1, lambda) VH: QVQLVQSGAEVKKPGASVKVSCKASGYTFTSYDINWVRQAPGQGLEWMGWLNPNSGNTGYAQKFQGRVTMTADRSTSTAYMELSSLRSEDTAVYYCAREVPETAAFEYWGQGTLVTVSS VL: QSVLTQPPSVSGAPGQRVTISCTSKSSDIGAGLGVHWYQQLPGTAPKLLIEGYYNRPSGVPDRFSGSKSGTSASLTITGLLPEDEGDYYCQSYDGTLSALFGGGTKLTVLG in your reply. 218

// fetch TL1A Binding Level (Early) given entry 320-237 (antibody, human IgG1, name in Kabat numbering, V domains shown, human IgG1, lambda) VH: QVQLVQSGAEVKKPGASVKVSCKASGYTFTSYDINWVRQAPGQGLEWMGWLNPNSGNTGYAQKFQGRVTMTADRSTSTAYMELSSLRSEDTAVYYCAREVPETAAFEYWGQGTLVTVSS VL: QSVLTQPPSVSGAPGQRVTISCTSSSSKIGAGLGVHWYQQLPGTAPKLLIEGYYNRPSGVPDRFSGSKSGTSASLTITGLLPEDEGDYYCQSYDGTLSALFGGGTKLTVLG 240

Tell me TL1A Binding Level (Early) reported for 320-223 (antibody, human IgG1, name in Kabat numbering, V domains shown, human IgG1, lambda) VH: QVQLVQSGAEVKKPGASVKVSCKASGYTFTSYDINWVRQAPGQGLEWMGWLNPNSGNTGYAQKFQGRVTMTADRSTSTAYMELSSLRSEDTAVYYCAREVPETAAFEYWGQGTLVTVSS VL: QSVLTQPPSVSGAPGQRVTISCTSSWSDIGAGLGVHWYQQLPGTAPKLLIEGYYNRPSGVPDRFSGSKSGTSASLTITGLLPEDEGDYYCQSYDGTLSALFGGGTKLTVLG 143

Look up TL1A Binding Level (Early) of 320-206 (antibody, human IgG1, name in Kabat numbering, V domains shown, human IgG1, lambda) VH: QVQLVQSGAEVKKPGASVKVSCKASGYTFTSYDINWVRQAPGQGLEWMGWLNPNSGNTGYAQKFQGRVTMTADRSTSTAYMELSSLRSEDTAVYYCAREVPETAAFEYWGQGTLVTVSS VL: QSVLTQPPSVSGAPGQRVTISCTLSSSDIGAGLGVHWYQQLPGTAPKLLIEGYYNRPSGVPDRFSGSKSGTSASLTITGLLPEDEGDYYCQSYDGTLSALFGGGTKLTVLG and report it. 257
